The entries below come with measured Kd values attached.
Target: T1, EsCas13d, nuclease-dead (Eubacterium siraeum, UniProt B0MS50, R295A;H300A;R849A;H854A)
T1 sequence: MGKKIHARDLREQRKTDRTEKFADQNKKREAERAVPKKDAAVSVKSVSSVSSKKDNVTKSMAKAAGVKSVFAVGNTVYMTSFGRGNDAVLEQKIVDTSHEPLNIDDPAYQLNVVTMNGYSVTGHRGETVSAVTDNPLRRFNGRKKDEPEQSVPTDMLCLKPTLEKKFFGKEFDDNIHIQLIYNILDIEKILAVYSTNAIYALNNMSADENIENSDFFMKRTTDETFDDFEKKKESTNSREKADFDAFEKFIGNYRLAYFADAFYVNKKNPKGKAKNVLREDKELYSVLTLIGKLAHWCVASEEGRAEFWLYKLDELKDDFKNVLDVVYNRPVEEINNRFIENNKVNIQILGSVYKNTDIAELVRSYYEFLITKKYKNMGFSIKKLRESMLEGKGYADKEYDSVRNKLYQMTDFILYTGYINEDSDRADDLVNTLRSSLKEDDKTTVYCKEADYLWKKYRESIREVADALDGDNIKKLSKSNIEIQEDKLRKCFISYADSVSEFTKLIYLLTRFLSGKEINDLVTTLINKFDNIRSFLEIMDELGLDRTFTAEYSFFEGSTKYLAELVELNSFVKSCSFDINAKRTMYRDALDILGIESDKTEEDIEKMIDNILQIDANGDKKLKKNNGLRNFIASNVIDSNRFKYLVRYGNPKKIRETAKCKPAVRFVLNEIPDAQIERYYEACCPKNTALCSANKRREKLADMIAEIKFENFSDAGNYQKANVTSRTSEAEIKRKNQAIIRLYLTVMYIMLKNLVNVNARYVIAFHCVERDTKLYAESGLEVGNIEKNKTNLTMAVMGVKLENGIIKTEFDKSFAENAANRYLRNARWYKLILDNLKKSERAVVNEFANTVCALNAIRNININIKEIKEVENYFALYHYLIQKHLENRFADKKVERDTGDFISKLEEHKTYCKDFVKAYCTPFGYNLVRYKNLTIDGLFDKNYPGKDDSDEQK
Test: crRNA (strand 1, pre-loaded); Mg2+; 40 mM Tris-HCl pH 7.5, 150 mM NaCl, 6 mM MgCl2, 1 mM DTT, 0.1% Tween-20, 0.2 mg/ml BSA; 25 C; 10 min per concentration, then washed
Details: tags: His6-TwinStrep-SUMO cleaved; N-terminal SNAP kept (SNAP-Surface 488); label: 3' end held by stalled T7 RNA polymerase
Give the value in nM but do not write nM after it.

Here's what some known entries look like.
target 1 MT 5'PFS AGG 3'PFS UAU (mixed) RNA 1: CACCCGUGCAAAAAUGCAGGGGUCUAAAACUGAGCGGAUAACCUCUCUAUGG RNA 2: GGGAAUGGAUCCACAUCUACGAAUUCAGGCCAUAGAGAGGUUAUCCGCUCAUAUAGAUCGGAAGAGCACACGU ... 35
target 1 insA 3' of 21,insA 3' of 10 (mixed) RNA 1: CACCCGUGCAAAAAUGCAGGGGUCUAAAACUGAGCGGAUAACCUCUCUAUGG RNA 2: GGGAAUGGAUCCACAUCUACGAAUUCGUACCAAUAGAGAGGUUAAUCCGCUCACCGAGAUCGGAAGAGCACACGU ... 28.2
target 1 C6U,G17U (mixed) RNA 1: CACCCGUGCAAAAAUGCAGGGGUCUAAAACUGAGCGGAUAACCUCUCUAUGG RNA 2: GGGAAUGGAUCCACAUCUACGAAUUCGUACCAUAUAGAGGUUAUCUGCUCACCGAGAUCGGAAGAGCACACGU ... 22.3

Now consider the entry below.
What Kd value was documented for this binder, target 1 MT 5'PFS AUG 3'PFS UCU (mixed) RNA 1: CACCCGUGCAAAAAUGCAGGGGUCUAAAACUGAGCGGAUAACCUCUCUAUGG RNA 2: GGGAAUGGAUCCACAUCUACGAAUUCAUGCCAUAGAGAGGUUAUCCGCUCAUCUAGAUCGGAAGAGCACACGU ?
10.6
